meta.source: ChEMBL document CHEMBL4342453

- System: K562
- assay.method.text: Cytotoxicity against human K562 cells after 72 hrs by MTT assay
- test.settings: K562, 72 h
pIC50: −log10 of the molar value.
metric.name: pIC50

# smiles.structure, metric.name, reading
rows = [
    ("COc1cc2oc3c(OC)c(-c4cc(CC=C(C)C)c(O)c(OC)c4)cc(OC)c3c2cc1O", "pIC50", "< 4.30"),
    ("COc1c(-c2ccccc2)cc(OC)c2c1oc1c3c(c(O)cc12)OC(C)(C)C=C3", "pIC50", "< 4.30"),
    ("COc1c(-c2ccccc2)cc(OC)c2c1oc1cc(O)c(OCC=C(C)C)cc12", "pIC50", 5.30),
    ("COc1cc(-c2c(OC)cc(-c3ccccc3)c(OC)c2O)ccc1OC/C=C(\\C)CO", "pIC50", "< 4.30"),
    ("COc1cc(-c2ccc(O)c(O)c2)c(OC)c(O)c1-c1ccc(OCC=C(C)C)c(O)c1", "pIC50", "< 4.30"),
]
